Origin of values: ChEMBL document CHEMBL5058577

Tested on: Fibroblast
method: Multiplex assay against human fibroblast
Type: toxicity, cell-based
run-conditions: 24 h, 1 µM, compound concentration 1 uM, replicate 2
recorded-endpoint: Population Apoptotic (%)
Numbers only here, please. The scale is %.

Form field - read-out: Population Apoptotic (%); system: Fibroblast; submitted item: "Cc1cccc(NC(=O)CN2CCC(c3ccccn3)CC2)c1.Cl.Cl"
40

Form field - read-out: Population Apoptotic (%); system: Fibroblast; submitted item: "CCCCC(=O)N(Cc1ccc(-c2ccccc2-c2nnn[nH]2)cc1)[C@H](C(=O)O)C(C)C"
38

Form field - read-out: Population Apoptotic (%); system: Fibroblast; submitted item: "COc1cccc2c1c(NS(=O)(=O)c1ccc(Cl)s1)nn2Cc1cccc(CNC(=O)C(C)(C)O)c1"
50

Form field - read-out: Population Apoptotic (%); system: Fibroblast; submitted item: "CC(/C=C1\SC(=S)N(CCCC(=O)Nc2ccc(C(=O)O)c(O)c2)C1=O)=C\c1ccccc1"
33

Form field - read-out: Population Apoptotic (%); system: Fibroblast; submitted item: "Cc1c(CC(=O)O)c2cccnc2n1Cc1ccc(S(C)(=O)=O)cc1C(F)(F)F"
52

Form field - read-out: Population Apoptotic (%); system: Fibroblast; submitted item: Cl.NCCc1ccc(O)c(O)c1 [DOPAMINE HYDROCHLORIDE]
51

Form field - read-out: Population Apoptotic (%); system: Fibroblast; submitted item: "CC[C@@H](C)Nc1nc(C)nc2c(-c3ccc(OC)nc3C)c(C)nn12"
47

Form field - read-out: Population Apoptotic (%); system: Fibroblast; submitted item: Cc1sc2c(c1C)C(c1ccc(Cl)cc1)=N[C@@H](CC(=O)NCCCCCCCCNC(=O)COc1cccc3c1C(=O)N(C1CCC(=O)NC1=O)C3=O)c1nnc(C)n1-2 (stereo partly drawn)
65

Form field - read-out: Population Apoptotic (%); system: Fibroblast; submitted item: "CC(C)COc1ccc(CNC(=O)N(Cc2ccc(F)cc2)C2CCN(C)CC2)cc1"
52

Form field - read-out: Population Apoptotic (%); system: Fibroblast; submitted item: "C[C@H](N)COC(=O)[C@@H](CCCCN)NC(=O)Cc1c(-c2ccc3ccccc3c2)[nH]c2c1ccc1ccccc12"
29

Form field - read-out: Population Apoptotic (%); system: Fibroblast; submitted item: Br.CS(=O)(=O)Nc1c(O)ccc2c1CCCC2C1=NCCN1 (stereo not drawn)
33

Form field - read-out: Population Apoptotic (%); system: Fibroblast; submitted item: "CC(C)(C)c1cc(NC(=O)Nc2ccc(-c3cn4c(n3)sc3cc(OCCN5CCOCC5)ccc34)cc2)no1"
42

Form field - read-out: Population Apoptotic (%); system: Fibroblast; submitted item: "CN[C@@H](C)C(=O)N[C@H](C(=O)N1CCC[C@H]1C(=O)Nc1snnc1-c1ccccc1)C1CCCCC1"
37

Form field - read-out: Population Apoptotic (%); system: Fibroblast; submitted item: "Cc1onc(-c2ccccc2Cl)c1C(=O)N(C)c1ccc(Cl)cc1"
39

Form field - read-out: Population Apoptotic (%); system: Fibroblast; submitted item: "CCCCC1=NC2(CCCC2)C(=O)N1Cc1ccc(-c2ccccc2-c2nnn[nH]2)cc1"
31

Form field - read-out: Population Apoptotic (%); system: Fibroblast; submitted item: "CCc1cc2cc(NS(=O)(=O)c3ccc(C#N)cc3)ccc2n(CC)c1=O"
43

Form field - read-out: Population Apoptotic (%); system: Fibroblast; submitted item: "NCCc1cn(S(=O)(=O)c2c(Cl)nc3sccn23)c2ccccc12.O=C(O)C(=O)O"
46

Form field - read-out: Population Apoptotic (%); system: Fibroblast; submitted item: COC[C@@H](c1ccc(C(F)(F)F)cc1)N1CCN(C2(C)CCN(C(=O)c3c(C)ncnc3C)CC2)C[C@@H]1C.O=C(O)/C=C\C(=O)O [VICRIVIROC MALEATE]
30

Form field - read-out: Population Apoptotic (%); system: Fibroblast; submitted item: "N#Cc1cc(F)cc(-c2nc(-c3ccc(F)cn3)no2)c1"
27

Form field - read-out: Population Apoptotic (%); system: Fibroblast; submitted item: "O=C1[C@H](Cc2ccc(O)cc2)N2C(=O)CCN(C(=O)NCc3ccccc3)[C@H]2CN1Cc1cccc2ccccc12"
28

Form field - read-out: Population Apoptotic (%); system: Fibroblast; submitted item: Cl.N=C(N)NC(=O)Cc1c(Cl)cccc1Cl [GUANFACINE HYDROCHLORIDE]
45

Form field - read-out: Population Apoptotic (%); system: Fibroblast; submitted item: "CCCOc1ccc2[nH]cc(C3=CCNCC3)c2n1.Cl"
38

Form field - read-out: Population Apoptotic (%); system: Fibroblast; submitted item: "CN1CCN(c2cc(-c3ccccc3)nc(N)n2)CC1"
47
